Each recorded value in this set is attributed to patent US20230002503A1.

# System tested: human CAIX antigen (purchased from AcroBiosystems) (human, UniProt Q16790 38-414)
# Experiment: BLI (ForteBio), method of Example 3
Measured quantity: koff (s⁻¹)
Hi! Could you send only the number? It should be in s⁻¹, unit omitted.

Sample answers from the record:
Binder	koff (s⁻¹)
Hu-H-YE-23-D2 (Fc fusion, T0013 prints the label as Hu-H-YB-23-D2; also called Hu-H-YB-23-D2; humanized recombinant antibody from H-YE-23; not shown: human IgG1 Fc segment) QVQLVESGGGLVQPGGSLRLSCSASGNSANIFSFASVAWYRQAPGKGLELVSVITSAGGTKYSDSVKGRFTISRDNSKNTLYLQMNSLRAEDTAVYYCNVDYLQDYWGQGTLVTVSS	0.00105
Hu-H-YE-32-D6 (Fc fusion, also called humanized antibody from H-YE-32; not shown: human IgG1 Fc segment) QVQLVESGGGLVQPGGSLRLSCSASGGARNIFSFAAMAWYRQAPGKGLELVAVITSAGGTQYSSSVKGRFTISRDNSKKTLYLQMNSLRAEDTAVYYCNADYYQDYWGQGTQVTVSS	0.0001
Hu-H-YE-05-D4 (Fc fusion, also called humanized recombinant antibody from H-YE-05; not shown: human IgG1 Fc segment) EVQLLESGGGLVQPGGSRRLSCAASGNSVNIFSFAAVAWYRQAPGKQRELVAVITTTGGTKYSDSVKGRFTISRDSSKNTVYLQMNSLRAEDTAVYYCNADYLQDYWGQGTQVTVSS	0.00142
Hu-H-YE-32-D5 (Fc fusion, T0013 prints the label as Hu-H-YB-32-D5; also called Hu-H-YB-32-D5; humanized antibody from H-YE-32; not shown: human IgG1 Fc segment) QVQLVESGGGLVQPGGSLRLSCSASGGARNIFSFAAMHWYRQAPGKGLELVAVITSAGGTYYADSVKGRFTISRDNSKKTLYLQMNSLRAEDTAVYYCNADYYQDYWGQGTQVTVSS	0.00177
H-YE-32 (Fc fusion, also called CAIX nanobody H-YE-32; not shown: human IgG1 Fc segment) QVQLQESGGGLVQPGGSLRLSCAASGGARNIFSFAAMAWYRQAPGKQRELVAVITSAGGTQYSSSVKGRFTISRDNAKKTVLLQMNSLKPEDTAVYYCNADYYQDYWGQGTQVTVSS	0.0001

**Query** For the binder H-YE-23 (Fc fusion, also called CAIX nanobody H-YE-23; WYE-23; not shown: human IgG1 Fc segment) QVQLQESGGGLVQPGGSLRLSCAASGNSANIFSFASVAWYRQAPGKQRELVAVITSAGGTKYSDSVKGRFTISRDNAKNTILLQMNSLKPEDTAVYYCNVDYLQDYWGQGTQVTVSS , report koff.
**Result** 0.000556

**Query** Return koff for the following binder: H-YE-05 (Fc fusion, also called CAIX nanobody H-YE-05; not shown: human IgG1 Fc segment) QVQLQESGGGLVQPGGSRRLSCAASGNSVNIFSFAAVAWYRQAPGKQRELVAVITTTGGTKYSDSVKGRFTISRDSAKNTVLLQMNSLKPEDTAVYYCNADYLQDYWGQGTQVTVSS
**Result** 0.00159

**Query** Give recorded koff. Hu-H-YE-05-D3 (Fc fusion, also called humanized recombinant antibody from H-YE-05; not shown: human IgG1 Fc segment) EVQLLESGGGLVQPGGSLRLSCAASGNSVNIFSFAAMSWYRQAPGKGLELVAVITTTGGTKYSDSVKGRFTISRDNSKNTLYLQMNSLRAEDTAVYYCNADYLQDYWGQGTQVTVSS
**Result** 0.00185
